# recorded-conditions: in ethyl acetate, 290.65 K
quantity-name: solubility (mole fraction)
In your answer, state the number alone without any accompanying words.

Quick note, solubility (mole fraction) for CC(C)(C)[C@H](O)[C@H](Cc1ccc(Cl)cc1)n1cncn1 (racemic) landed at 0.0153

---

# recorded-conditions: in ethyl acetate, 318.15 K
quantity-name: solubility (mole fraction)

For reference, reported solubility (mole fraction) for CC(C)(C)[C@H](O)[C@H](Cc1ccc(Cl)cc1)n1cncn1 (racemic) stands at 0.0552

---

# recorded-conditions: in isopropanol, 308.15 K
quantity-name: solubility (mole fraction)

Notebook: CC(C)(C)[C@H](O)[C@H](Cc1ccc(Cl)cc1)n1cncn1 (racemic) , solubility (mole fraction) read as 0.0185

---

# recorded-conditions: in toluene, 280.65 K
quantity-name: solubility (mole fraction)
Give a plain numeric answer without units written out.

Recorded result, CC(C)(C)[C@H](O)[C@H](Cc1ccc(Cl)cc1)n1cncn1 (racemic) , solubility (mole fraction): 0.0426

---

# recorded-conditions: in n-butanol, 318.15 K
quantity-name: solubility (mole fraction)

Looking up CC(C)(C)[C@H](O)[C@H](Cc1ccc(Cl)cc1)n1cncn1 (racemic) , I found its solubility (mole fraction) recorded as 0.0341

---

# recorded-conditions: in 1,4-dioxane, 315.65 K
quantity-name: solubility (mole fraction)

Entry under test: CC(C)(C)[C@H](O)[C@H](Cc1ccc(Cl)cc1)n1cncn1 (racemic) . Its solubility (mole fraction) was 0.0551

---

# recorded-conditions: in ethyl acetate, 303.15 K
quantity-name: solubility (mole fraction)

// solubility (mole fraction) value for CC(C)(C)[C@H](O)[C@H](Cc1ccc(Cl)cc1)n1cncn1 (racemic) : 0.029

---

# recorded-conditions: in ethyl acetate, 283.15 K
quantity-name: solubility (mole fraction)

Form: molecule = CC(C)(C)[C@H](O)[C@H](Cc1ccc(Cl)cc1)n1cncn1 (racemic) ; solubility (mole fraction) = 0.0104

---

# recorded-conditions: in acetonitrile, 310.65 K
quantity-name: solubility (mole fraction)
Please give only the number in your answer, with no unit.

Measured solubility (mole fraction), CC(C)(C)[C@H](O)[C@H](Cc1ccc(Cl)cc1)n1cncn1 (racemic) : 0.00846

---

# recorded-conditions: in acetone, 303.15 K
quantity-name: solubility (mole fraction)
Just the number, please, no unit after it.

For CC(C)(C)[C@H](O)[C@H](Cc1ccc(Cl)cc1)n1cncn1 (racemic) the compound record lists solubility (mole fraction) as 0.0269

---

# recorded-conditions: in 1,4-dioxane, 310.65 K
quantity-name: solubility (mole fraction)
Note: the reply should be a number with no unit written.

Entry CC(C)(C)[C@H](O)[C@H](Cc1ccc(Cl)cc1)n1cncn1 (racemic) ; solubility (mole fraction) = 0.0475

---

# recorded-conditions: in acetonitrile, 290.65 K
quantity-name: solubility (mole fraction)
Lab note: jot down the number only; don't add units.

Item: CC(C)(C)[C@H](O)[C@H](Cc1ccc(Cl)cc1)n1cncn1 (racemic) | solubility (mole fraction): 0.00405

---

# recorded-conditions: in acetonitrile, 280.65 K
quantity-name: solubility (mole fraction)
Returns: the value as a bare number; no unit string appended.

Memo: CC(C)(C)[C@H](O)[C@H](Cc1ccc(Cl)cc1)n1cncn1 (racemic) , reported solubility (mole fraction): 0.00267

---

# recorded-conditions: in isopropanol, 288.15 K
quantity-name: solubility (mole fraction)
// no unit, no text: just the number

The reported solubility (mole fraction) of the compound CC(C)(C)[C@H](O)[C@H](Cc1ccc(Cl)cc1)n1cncn1 (racemic) was 0.00985

---

# recorded-conditions: in acetone, 280.65 K
quantity-name: solubility (mole fraction)
Write the number on its own, no unit after it.

Lab note: measured solubility (mole fraction) of CC(C)(C)[C@H](O)[C@H](Cc1ccc(Cl)cc1)n1cncn1 (racemic) was 0.0145

---

# recorded-conditions: in 1,4-dioxane, 313.15 K
quantity-name: solubility (mole fraction)
Please respond with just the number, no unit label.

Recorded result, CC(C)(C)[C@H](O)[C@H](Cc1ccc(Cl)cc1)n1cncn1 (racemic) , solubility (mole fraction): 0.0512

---

# recorded-conditions: in acetonitrile, 305.65 K
quantity-name: solubility (mole fraction)
Output: the number by itself.

Data point: CC(C)(C)[C@H](O)[C@H](Cc1ccc(Cl)cc1)n1cncn1 (racemic) ; solubility (mole fraction) = 0.00709

---

# recorded-conditions: in isopropanol, 283.15 K
quantity-name: solubility (mole fraction)
Note: the reply should be a number with no unit written.

Memo: CC(C)(C)[C@H](O)[C@H](Cc1ccc(Cl)cc1)n1cncn1 (racemic) , reported solubility (mole fraction): 0.00835

---

# recorded-conditions: in acetone, 305.65 K
quantity-name: solubility (mole fraction)
A bare number is all that is needed in reply.

Per the records, this molecule ( CC(C)(C)[C@H](O)[C@H](Cc1ccc(Cl)cc1)n1cncn1 (racemic) ) has solubility (mole fraction) equal to 0.0284

---

# recorded-conditions: in acetonitrile, 308.15 K
quantity-name: solubility (mole fraction)
Give the figure only, with no unit attached.

solubility (mole fraction) measured on CC(C)(C)[C@H](O)[C@H](Cc1ccc(Cl)cc1)n1cncn1 (racemic) = 0.00776

---

# recorded-conditions: in n-propanol, 305.65 K
quantity-name: solubility (mole fraction)
No unit in the answer, only the number.

Given item CC(C)(C)[C@H](O)[C@H](Cc1ccc(Cl)cc1)n1cncn1 (racemic) , the value recorded as its solubility (mole fraction) is 0.0228

---

# recorded-conditions: in n-propanol, 318.15 K
quantity-name: solubility (mole fraction)
A bare number is all that is needed in reply.

Notebook: CC(C)(C)[C@H](O)[C@H](Cc1ccc(Cl)cc1)n1cncn1 (racemic) , solubility (mole fraction) read as 0.0291

---

# recorded-conditions: in 1,4-dioxane, 308.15 K
quantity-name: solubility (mole fraction)

Field solubility (mole fraction) (entry CC(C)(C)[C@H](O)[C@H](Cc1ccc(Cl)cc1)n1cncn1 (racemic) ) reads 0.044

---

# recorded-conditions: in isopropanol, 313.15 K
quantity-name: solubility (mole fraction)
// keep it numeric: no unit symbol after the value

In plain terms, CC(C)(C)[C@H](O)[C@H](Cc1ccc(Cl)cc1)n1cncn1 (racemic) has a documented solubility (mole fraction) of 0.021

---

# recorded-conditions: in ethanol, 300.65 K
quantity-name: solubility (mole fraction)
Lab note: record just the number, no unit beside it.

Value of solubility (mole fraction) reported for the compound CC(C)(C)[C@H](O)[C@H](Cc1ccc(Cl)cc1)n1cncn1 (racemic) is 0.016

---

# recorded-conditions: in ethanol, 313.15 K
quantity-name: solubility (mole fraction)
Lab note: jot down the number only; don't add units.

Memo: CC(C)(C)[C@H](O)[C@H](Cc1ccc(Cl)cc1)n1cncn1 (racemic) , reported solubility (mole fraction): 0.0229

---

# recorded-conditions: in toluene, 298.15 K
quantity-name: solubility (mole fraction)
Please give the numeric answer without any surrounding text.

For reference, reported solubility (mole fraction) for CC(C)(C)[C@H](O)[C@H](Cc1ccc(Cl)cc1)n1cncn1 (racemic) stands at 0.0508

---

# recorded-conditions: in n-propanol, 313.15 K
quantity-name: solubility (mole fraction)
Please reply with the number alone, leaving off any unit.

The recorded solubility (mole fraction) for CC(C)(C)[C@H](O)[C@H](Cc1ccc(Cl)cc1)n1cncn1 (racemic) is 0.0265

---

# recorded-conditions: in isopropanol, 298.15 K
quantity-name: solubility (mole fraction)
Please reply with the number alone, leaving off any unit.

The recorded solubility (mole fraction) for CC(C)(C)[C@H](O)[C@H](Cc1ccc(Cl)cc1)n1cncn1 (racemic) is 0.0138

---

# recorded-conditions: in ethanol, 315.65 K
quantity-name: solubility (mole fraction)
Output: the number by itself.

For record CC(C)(C)[C@H](O)[C@H](Cc1ccc(Cl)cc1)n1cncn1 (racemic) the listed solubility (mole fraction) is 0.0246

---

# recorded-conditions: in ethyl acetate, 310.65 K
quantity-name: solubility (mole fraction)
Enter the number alone.

Form: molecule = CC(C)(C)[C@H](O)[C@H](Cc1ccc(Cl)cc1)n1cncn1 (racemic) ; solubility (mole fraction) = 0.0395

---

# recorded-conditions: in isopropanol, 280.65 K
quantity-name: solubility (mole fraction)

What the record says about CC(C)(C)[C@H](O)[C@H](Cc1ccc(Cl)cc1)n1cncn1 (racemic) : solubility (mole fraction) is 0.00766

---

# recorded-conditions: in ethyl acetate, 298.15 K
quantity-name: solubility (mole fraction)
Reply with the value as a number alone.

Input CC(C)(C)[C@H](O)[C@H](Cc1ccc(Cl)cc1)n1cncn1 (racemic) . Output solubility (mole fraction): 0.0228

---

# recorded-conditions: in acetone, 318.15 K
quantity-name: solubility (mole fraction)
Keep the answer to the number alone.

Briefly, solubility (mole fraction) measured for CC(C)(C)[C@H](O)[C@H](Cc1ccc(Cl)cc1)n1cncn1 (racemic) : 0.0372

---

# recorded-conditions: in n-butanol, 305.65 K
quantity-name: solubility (mole fraction)
Form field (numeric): enter value without unit.

// solubility (mole fraction) lookup, compound = CC(C)(C)[C@H](O)[C@H](Cc1ccc(Cl)cc1)n1cncn1 (racemic) , result: 0.0266
